- Test system: Sodium- and chloride-dependent GABA transporter 2 (Mus musculus)
- Test description: Inhibition of mouse GAT3 expressed in HEK293 cells assessed as remaining [3H]GABA uptake at 100 uM preincubated for 25 mins followed by [3H]GABA/unlabeled GABA addition measured after 4 mins by liquid scintillation counting analysis
Measurement name: Activity (%)

{"columns": ["Compound", "Measured result"],
 "data": [
  ["O=C(O)[C@H]1CNCC[C@H]1CCC#Cc1ccccc1Cc1ccccc1 (racemic)", 53.9]
]}

(P) O=C(O)[C@H]1CNCC[C@@H]1CC/C=C/c1ccccc1-c1ccccc1 (racemic)
(Q) CN1CC[C@H](CCC#Cc2ccccc2-c2ccccc2)[C@@H](C(=O)O)C1 (racemic)
Rank P against Q by their Activity values and give the higher one. Field: selected label. Fill in the label of the entry you choose. Q
